Documented pIC50 across a set of compounds
- testedOn: HCV NS3 protease (Hepatitis C virus genotype 1b, UniProt P26662)
- Sequence (P26662 1027-1206, other chains not shown): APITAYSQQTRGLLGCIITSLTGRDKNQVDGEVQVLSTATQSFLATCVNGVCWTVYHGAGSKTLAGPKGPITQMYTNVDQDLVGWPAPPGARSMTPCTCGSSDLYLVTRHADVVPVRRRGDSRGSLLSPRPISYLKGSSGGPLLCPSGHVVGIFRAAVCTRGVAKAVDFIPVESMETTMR
- protocolText: Microplate protease activity assay
- Format: biochemical, hepatitis C virus (J strain)
- protocolConditions: Table II; inhibition of HCV NS3 protease, co-factor Pep4AK, tritiated substrate
- Protocol: Microplate Protease Activity Assay The HCV-protease (J strain) was stored until use at −80° C. in 250 mM NaCl, phosphate buffer pH 6.5, 50% glycerol, 0.1% CHAPS. As protease co-factor the peptide Pep4AK (KKKGSVVIVGRIILSGR-NH2), spanning the central hydrophobic core (residues 21–34) of the NS4A protein, with a three-lysine tag at the N-terminus to increase solubility (Bianchi, E. et al., Biochemistry 36, 7890–7897;1997), was used. […]
Answer as the number alone; pIC50 is minus log10 of concentration in mol/L.

Here's what some known entries look like.
compound	observedMeasurement
CC(C)C[C@H](NC(=O)[C@H](CC(=O)O)NC(=O)[C@@H](NC(=O)[C@@H]1CCCC[C@H]1C(=O)O)c1ccccc1)C(N)=O	4.40
CC(C)CC(NC(=O)C(CC(=O)O)NC(=O)C(NC(=O)C1CCCCC1C(=O)O)c1cccc(OC(=O)CC(c2ccccc2)c2ccccc2)c1)C(N)=O (single isomer, unassigned)	4.89
CC(C)C[C@H](NC(=O)[C@H](CC(=O)O)NC(=O)[C@@H](NC(=O)[C@@H]1CCCC[C@H]1C(=O)O)c1ccccc1F)C(N)=O	4.33

Asked: What value of pIC50 has been reported for the following compound? CC(C)C[C@H](NC(=O)[C@H](CC(=O)O)NC(=O)[C@@H](NC(=O)[C@@H]1CCCC[C@H]1C(=O)O)c1cccc(OC(=O)Cc2cccc3ccccc23)c1)C(N)=O
Given back: 4.66

Asked: What value of pIC50 has been reported for the following compound? CC(C)C[C@H](NC(=O)[C@H](CC(=O)O)NC(=O)[C@@H](NC(=O)[C@@H]1CCCC[C@H]1C(=O)O)c1cccc(OC(=O)Cc2ccc3ccccc3c2)c1)C(N)=O
Given back: 4.66

----------
Documented pIC50 across a set of compounds
- testedOn: HCV NS3 protease (Hepatitis C virus genotype 1b, UniProt P26662)
- protocolText: Microplate protease activity assay
- Type: biochemical, hepatitis C virus (J strain)
- protocolConditions: Table IV; inhibition of HCV NS3 protease, co-factor Pep4AK, tritiated substrate
Answer as the number alone; pIC50 is minus log10 of concentration in mol/L.

compound	testedOn	pIC50
O=C(O)CCN(CCc1ccc(Cl)cc1Cl)C(=O)[C@H](CC1CCCCC1)NC(=O)[C@@H]1CCCC[C@H]1C(=O)O	HCV NS3 protease (Hepatitis C virus genotype 1b, UniProt P26662)	3.75
O=C(O)CCN(CCC(c1ccccc1)c1ccccc1)C(=O)[C@@H](NC(=O)[C@@H]1CCCC[C@H]1C(=O)O)c1ccccc1 (single isomer, unassigned)	HCV NS3 protease (Hepatitis C virus genotype 1b, UniProt P26662)	4.85
O=C(O)CCN(CCC(c1ccccc1)c1ccccc1)C(=O)[C@@H](NC(=O)[C@@H]1CCCC[C@H]1C(=O)O)c1ccccc1F	HCV NS3 protease (Hepatitis C virus genotype 1b, UniProt P26662)	5.22
O=C(O)CCN(CCC(c1ccccc1)c1ccccc1)C(=O)[C@@H](NC(=O)[C@@H]1CCCC[C@H]1C(=O)O)c1ccc(Br)cc1	HCV NS3 protease (Hepatitis C virus genotype 1b, UniProt P26662)	5.77
O=C(O)CCN(CCC(c1ccccc1)c1ccccc1)C(=O)[C@@H](NC(=O)[C@@H]1CCCC[C@H]1C(=O)O)c1ccc(C(F)(F)F)cc1	HCV NS3 protease (Hepatitis C virus genotype 1b, UniProt P26662)	5.15

Asked: What value of pIC50 has been reported for the following compound? COc1cccc(CCN(CCC(=O)O)C(=O)[C@@H](NC(=O)[C@@H]2CCCC[C@H]2C(=O)O)c2ccccc2F)c1
Given back: 4.18

Asked: What value of pIC50 has been reported for the following compound? COc1ccccc1CCN(CCC(=O)O)C(=O)[C@@H](NC(=O)[C@@H]1CCCC[C@H]1C(=O)O)c1ccccc1F
Given back: 4.36

Asked: What value of pIC50 has been reported for the following compound? O=C(O)CCN(CC(c1ccccc1)c1ccccc1)C(=O)[C@H](CC1CCCCC1)NC(=O)[C@@H]1CCCC[C@H]1C(=O)O
Given back: 3.88
